# TARGET_OF_ASSAY: Human P-cadherin on cells (human, UniProt P22223 108-829)
# Sequence (P22223 108-829): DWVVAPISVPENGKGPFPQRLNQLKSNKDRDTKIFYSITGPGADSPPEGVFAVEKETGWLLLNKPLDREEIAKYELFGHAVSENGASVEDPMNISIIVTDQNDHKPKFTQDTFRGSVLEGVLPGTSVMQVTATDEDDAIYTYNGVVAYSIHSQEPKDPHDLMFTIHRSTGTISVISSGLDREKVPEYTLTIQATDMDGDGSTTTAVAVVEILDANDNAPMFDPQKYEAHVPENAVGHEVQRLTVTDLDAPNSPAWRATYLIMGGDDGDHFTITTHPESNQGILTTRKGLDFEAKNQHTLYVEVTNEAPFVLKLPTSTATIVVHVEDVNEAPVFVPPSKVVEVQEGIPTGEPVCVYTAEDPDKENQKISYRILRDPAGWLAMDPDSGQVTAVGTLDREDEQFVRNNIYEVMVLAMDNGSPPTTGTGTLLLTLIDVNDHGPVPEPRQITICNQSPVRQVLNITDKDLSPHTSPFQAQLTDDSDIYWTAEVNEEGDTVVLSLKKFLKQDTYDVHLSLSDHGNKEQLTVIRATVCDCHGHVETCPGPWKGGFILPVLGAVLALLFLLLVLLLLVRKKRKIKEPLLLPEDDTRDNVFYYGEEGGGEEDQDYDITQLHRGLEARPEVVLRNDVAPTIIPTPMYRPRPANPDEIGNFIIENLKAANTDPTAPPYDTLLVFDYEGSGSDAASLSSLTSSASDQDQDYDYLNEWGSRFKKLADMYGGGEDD
# TEST_NAME: cell-based or functional assay
For each record, write down the corresponding internalization, Fab-ZAP on HCC-1954, IC50.
Give bare numbers, in nM.

Below are worked cases with known answers.
W3195-1.53.1-p7-uIgG1LV320 (antibody, V domains shown, also called W3195-1.53.1-p7-uIgG1V320; W3195-p7-V320 antibody) VH: QVQLQESGPGLVKPSETLSLTCTVSGGSVISDNYYWTWVRQPPGKGLEFIGYIYYRGSTNYNPSLKNRVIISIDTSRNQFSLDLNSVTAADTAVYYCARDRRTGSSLPFDNWGQGTLVTVSS VL: SYELTQPPSVSVSPGQTAQITCSGDKLGDKFASWYQQKSGQSPVVVIYQDNKRPSGFPERFSGSNSGNTATLTISGTQAMDEADYYCQAWDSSIVVFGGGTKLTVLG ... 0.059
W3195-1.53.1-p6-uIgG1LV320 (antibody, V domains shown, also called W3195-1.53.1-p6-uIgG1V320; W3195-p6-V320 antibody) VH: QVQLQESGPGLVKPSETLSLTCTVSGGSVISDNYYWTWVRQPPGKGLEFIGYIYYRGSTNYNPSLKNRVIISIDTSRNQFSLDLNSVTAADTAVYYCARDRRTGTSLPFDNWGQGTLVTVSS VL: SYELTQPPSVSVSPGQTAQITCSGDKLGDKFASWYQQKSGQSPVVVIYQDNKRPSGFPERFSGSNSGNTATLTISGTQAMDEADYYCQAWDSSIVVFGGGTKLTVLG ... 0.063
W3195-1.53.1-p4-uIgG1LV320 (antibody, V domains shown, V320 = IgG1 Fc with L234A/L235A; also called W3195-1.53.1-p4-uIgG1V320; W3195-p4-V320 antibody) VH: QVQLQESGPGLVKPSETLSLTCTVSGGSVISDNYYWTWVRQPPGKGLEFIGYIYYRGSTNYNPSLKNRVIISIDTSRNQFSLDLNSVTAADTAVYYCARDRRTGNALPFDNWGQGTLVTVSS VL: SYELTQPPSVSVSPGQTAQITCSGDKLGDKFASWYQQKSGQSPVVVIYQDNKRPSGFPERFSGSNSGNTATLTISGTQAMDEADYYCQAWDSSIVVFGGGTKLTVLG ... 0.063

Look at this binder and give its reported internalization, Fab-ZAP on HCC-1954, IC50. W3195-1.53.1-p5-uIgG1LV320 (antibody, V domains shown, also called W3195-1.53.1-p5-uIgG1V320; W3195-p5-V320 antibody) VH: QVQLQESGPGLVKPSETLSLTCTVSGGSVISDNYYWTWVRQPPGKGLEFIGYIYYRGSTNYNPSLKNRVIISIDTSRNQFSLDLNSVTAADTAVYYCARDRRTGQSLPFDNWGQGTLVTVSS VL: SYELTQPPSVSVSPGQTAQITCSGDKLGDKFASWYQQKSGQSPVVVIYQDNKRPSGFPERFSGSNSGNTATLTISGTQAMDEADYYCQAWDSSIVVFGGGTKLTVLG
0.058
